Every entry's value here was drawn from patent US20220184071A1.

assay: Pharmacokinetics in infected mice (plasma, kidney, thigh; PopPK); format: in vivo, mouse; settings: male, CD-1, mouse, subcutaneous; PopPK final parameter estimate, plasma
measuredQuantity: clearance (mL/min)

{"columns": ["compound", "measuredQuantity", "experimentalResult"],
 "data": [
  ["O=c1ccc2ncc(=O)n3c2n1C[C@H]3CN1CCC(NCc2cc3c(cn2)OCCC3)CC1", "clearance", 1.73]
]}

* * *

Assay: Plasma and urine pharmacokinetics, phase IIa study in women with acute uUTI
Type: in vivo, human
Details: female, human, plasma, oral, 1500 mg, Day 1; read-out: Plasma Cmax, Geometric Mean (% CVb)
Procedure: Bronchoalveolar lavage samples were collected to determine gepotidacin exposures in ELF and AM following a single 1000 mg IV infusion over 2 hours to healthy subjects. Saliva exposure was assessed in healthy volunteers following 1500 mg oral single dose. Gepotidacin exposures in urine was assessed in women with acute uUTI following 1500 mg BID oral doses for 5 days. […]

{"columns": ["compound", "Cmax, ng/mL"],
 "data": [
  ["O=c1ccc2ncc(=O)n3c2n1C[C@H]3CN1CCC(NCc2cc3c(cn2)OCCC3)CC1", 5890]
]}
